# credit: patent US11214803B2

I'd be grateful if you could share measured % UTC (Yap1 mRNA) for these entries.
# Tested on: Yap1 mRNA
# Procedure summary: Dose-dependent inhibition of human Yap1 in SNU-449 cells (Example 9, RTS36584)
# Format: cell-based
# Experimental setup: 125.0 nM, free uptake, approximately 48 hours
Strand notation (5' to 3'): a small letter for the sugar, then the base; units joined by * are phosphorothioate-linked, units joined directly phosphodiester-linked; [ ] holds rarer units or linkages, { } end groups; capitals alone tell only the bases. e = 2'-O-(2-methoxyethyl) (MOE); k = constrained ethyl (cEt); [5mC] = 5-methylcytosine; d = 2'-deoxy (DNA)
Only the number, expressed in % UTC, is required.

In: Quick check: % UTC (Yap1 mRNA) of 1198202 (kG*kA*dA*dA*dT*dT*dG*dT*d[5mC]*dT*d[5mC]*eA*eT*eG*k[5mC]*k[5mC]; antisense) [compound 1198202] ?
Out: 46

In: Entry to check: 1074728 (antisense kT*kG*kA*dG*dG*dT*dA*dT*dA*dA*d[5mC]*dT*dG*kG*kG*k[5mC]) [compound 1074728]
Out: 45

In: Entry to check: 1197213 (kT*kG*kT*dA*dT*dG*dT*d[5mC]*dA*dG*dA*dA*dG*kA*kG*kT; antisense) [compound 1197213]
Out: 46

In: Entry to check: 1198457 (kA*kT*dT*dG*dT*d[5mC]*dT*d[5mC]*dA*dT*dG*e[5mC]*k[5mC]*eT*kT*eA; antisense) [compound 1198457]
Out: 56
